System: estrogen receptor (rat uterine cytosol)
Assay: DSSTox (NCTRER) National Center for Toxicological Research Estrogen Receptor Binding Database
Conditions: rat uterine cytosol ER competitive binding, RBA; ChemClass_ERB: Misc
Records with an inconclusive call do not appear. The source made the active and inactive calls.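 Rule for the calls: active = relative estrogen receptor binding affinity above 1E-5, where estradiol scores 100; inconclusive = weak binder, under half inhibition at top dose, or affinity below 1E-5; inactive = no binding seen, affinity zero.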
MEASURE: outcome

# COMPOUND, outcome
measured = [
    ("ClC1C(Cl)C(Cl)C(Cl)C(Cl)C1Cl (stereo not drawn)", "inactive"),
    ("CNC(=O)Oc1cccc2ccccc12", "inactive"),
    ("CCNc1nc(Cl)nc(NC(C)C)n1", "inactive"),
    ("CC(C)COC(=O)c1ccccc1C(=O)OCC(C)C", "inactive"),
    ("CCc1cccc(C)c1N(C(=O)CCl)C(C)COC (stereo not drawn)", "inactive"),
]

Provide one value: measured outcome of O=C(O)COc1ccc(Cl)cc1Cl inactive

Provide one value: measured outcome of Cn1c(=O)c2c(ncn2C)n(C)c1=O inactive

Provide one value: measured outcome of Nc1ccc(/C=C/c2ccc(N)cc2)cc1 inactive

---

System: estrogen receptor (rat uterine cytosol)
Experiment: DSSTox (NCTRER) National Center for Toxicological Research Estrogen Receptor Binding Database;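 for relative binding affinity: ratio of estradiol IC50 over compound IC50 times 100 so estradiol equals 100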
Conditions: rat uterine cytosol ER competitive binding, RBA; ChemClass_ERB: DES Hexestrol derivatives; active compounds read high
Results filed as inconclusive are left out.
Short version: relative binding affinity at least 4% is label 1, less is label 0.

# COMPOUND, CLASS
data = [
    ("CCC(c1ccc(O)c(O)c1)C(CC)c1ccc(O)c(O)c1 (stereo unspecified)", "label 1"),
]

Alright, here's another compound for you.
hey, is relative binding affinity for this one >= 4%? CC[C@H](c1ccc(O)cc1)[C@@H](CC)c1ccc(O)cc1 label 1

---

Each record here notes measured relative binding affinity.
Test system: estrogen receptor (rat uterine cytosol)
Assay: DSSTox (NCTRER) National Center for Toxicological Research Estrogen Receptor Binding Database;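 for relative binding affinity: ratio of estradiol IC50 over compound IC50 times 100 so estradiol equals 100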
Details: rat uterine cytosol ER competitive binding, RBA; ChemClass_ERB: Phenols Alkyl; active compounds read high
Results filed as inconclusive are left out.
The answer is to be given in %; state only the numeric part.

# STRUCTURE STRING, relative binding affinity (%)
measured = [
    ("CCC(C)(C)c1ccc(O)cc1", 0.00054),
    ("CCc1cccc(O)c1", 0.00013),
    ("CCCCCCCCCCCCc1ccc(O)cc1", 0.0186),
    ("CCCCCCCCCc1ccc(O)cc1", 0.0295),
]

Okay, next one:
Provide one value: measured relative binding affinity of Cc1cc(O)ccc1Cl 0.00041

---

Test system: estrogen receptor (rat uterine cytosol)
Assay: DSSTox (NCTRER) National Center for Toxicological Research Estrogen Receptor Binding Database;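 for relative binding affinity: ratio of estradiol IC50 over compound IC50 times 100 so estradiol equals 100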
Settings: rat uterine cytosol ER competitive binding, RBA; ChemClass_ERB: Phytoestrogens Chalconoids; active compounds read high
Inconclusive results are not listed.
Short version: relative binding affinity at least 0.004% is Met, less is Not met.

# STRUCTURE STRING, MEASURED TARGET, CLASS
data = [
    ("O=C(CCc1ccc(O)cc1)c1c(O)cc(O)cc1O", "estrogen receptor (rat uterine cytosol)", "Met"),
    ("O=C(/C=C/c1ccccc1)c1ccccc1", "estrogen receptor (rat uterine cytosol)", "Not met"),
]

hey, is relative binding affinity for this one >= 0.004%? O=C(/C=C/c1ccccc1)c1ccc(O)cc1 Not met

hey, is relative binding affinity for this one >= 0.004%? O=C(/C=C/c1ccc(O)cc1)c1ccc(O)cc1O Met

hey, is relative binding affinity for this one >= 0.004%? O=C(/C=C/c1ccc(O)cc1)c1ccccc1 Not met

Measured values drawn from PubChem BioAssay AID1204 for this set.
